Target: Syk kinase (Homo sapiens, UniProt P43405)
Construct: purchased
Assay: Syk kinase inhibition, Caliper LabChip off-chip mobility-shift kinase assay
Type: biochemical
Settings: Caliper LabChip assay; read-out: Syk Enzyme IC50
recorded metric: IC50 (µM)

Here are 10 compounds together with their reported answers.
> print(dat)
                                    compound                            assayed.target  readout.value
 1  Cc1ccnc(Nc2cc3ccn(C(C)C)c(=O)c3c(N[C@H]3CC[C@@H](CO)C3)n2)c1 [compound 987]  Syk kinase (Homo sapiens, UniProt P43405)           0.06
 2  CC1(Nc2nc(-c3cnc(N)nc3)cc3ccn(CC4CCOCC4)c(=O)c23)CCC1 [compound 930]  Syk kinase (Homo sapiens, UniProt P43405)          0.081
 3  CC(C(N)=O)n1ccc2cc(Nc3cnccn3)nc(NC(C)(C)C)c2c1=O (centres unmarked) [compound 660]  Syk kinase (Homo sapiens, UniProt P43405)          0.013
 4  CCn1ccc2cc(Nc3cnccn3)nc(N)c2c1=O [compound 802]  Syk kinase (Homo sapiens, UniProt P43405)           1.18
 5  CC(C)(C)Nc1nc(Nc2cc(C(N)=O)ccn2)cc2ccn(CCO)c(=O)c12 [compound 681]  Syk kinase (Homo sapiens, UniProt P43405)          0.082
 6  CC(C)(C)Nc1nc(-c2cnc(N)nc2)cc2ccn(CC3CCOCC3)c(=O)c12 [compound 919]  Syk kinase (Homo sapiens, UniProt P43405)          0.081
 7  CC(C)(C)Nc1nc(Nc2cc(C(C)(C)O)c(Cl)cn2)cc2ccn(CCO)c(=O)c12 [compound 728]  Syk kinase (Homo sapiens, UniProt P43405)          0.283
 8  CC[C@H](CO)Nc1nc(Nc2cc(C)ccn2)cc2ccn(CC)c(=O)c12 [compound 598]  Syk kinase (Homo sapiens, UniProt P43405)          0.518
 9  CC1(Cn2ccc3cc(Nc4cnccn4)nc(NC4CC(F)(F)C4)c3c2=O)COC1 [compound 765]  Syk kinase (Homo sapiens, UniProt P43405)          0.052
10  O=c1c2c(NC3CCCC3)nc(Nc3cnccn3)cc2ccn1C[C@H](O)CO [compound 775]  Syk kinase (Homo sapiens, UniProt P43405)           0.01

[P] CC(C)(C)Nc1nc(-c2cnc(N)nc2)cc2ccn(CCS(C)(=O)=O)c(=O)c12 [compound 737]
[Q] CCn1ccc2cc(Nc3cc(C)ccn3)nc(N[C@@H]3CC[C@@H](CO)C3)c2c1=O [compound 790]
-- ask Of P versus Q , which is the one with smaller reported IC50? Answer with the label corresponding to your selection.
-- reply P

[a] COCC(COC)n1ccc2cc(-c3cnc(N)nc3)nc(NC(C)(C)C)c2c1=O [compound 936]
[b] CC(C)n1ccc2cc(-c3cnc(N)nc3)nc(N[C@H]3CC[C@@H](CO)C3)c2c1=O [compound 1030]
-- ask Endpoint returns whichever of a and b has the numerically higher IC50. Label of pick, please.
-- reply b

---

Biological target: Syk kinase (Homo sapiens, UniProt P43405)
Construct: purchased
Test: Syk kinase inhibition, Caliper LabChip off-chip mobility-shift kinase assay
Format: biochemical
Conditions: Caliper LabChip assay; read-out: Syk Enzyme IC50
pIC50: −log10 of the molar value.
recorded metric: pIC50

Please review the entries below; each comes with its answer.
> print(dat)
                                   molecule  readout.value
1  CC(C)(O)Cn1ccc2cc(-c3cnc(N)nc3)nc(NC(C)(C)C)c2c1=O [compound 928]           7.36
2  CC(C)(C)Nc1nc(Nc2cc(N3CCCC(CO)C3)ccn2)cc2ccn(CCO)c(=O)c12 (centres unmarked) [compound 845]           6.12
3  CC1(Cn2ccc3cc(Nc4cnccn4)nc(NC4CCCC4)c3c2=O)COC1 [compound 762]           7.66

[A] CC(C)(C)Nc1nc(Nc2cnccn2)cc2ccn(CCF)c(=O)c12 [compound 1001]
[B] CC(C)(C)Nc1nc(Nc2cc(-c3c[nH]nc3C(F)(F)F)ncn2)cc2ccn(CCO)c(=O)c12 [compound 635]
[C] CC(O)c1ccnc(Nc2cc3ccn(CCO)c(=O)c3c(NC(C)(C)C)n2)c1 (centres unmarked) [compound 700]
[D] CC[C@@H](CO)Nc1nc(Nc2cnccn2)cc2ccn(CC)c(=O)c12 [compound 1042]
[E] [2H]C([2H])([2H])n1ccc2cc(Nc3cnccn3)nc(N[C@H]3CC[C@H](O)CC3)c2c1=O [compound 984]
-- ask Hey, can you sort those molecules up there by pIC50, smallest first? A complete answer lists every label in the requested sequence.
-- reply B, D, A, E, C

[1] CC(C)n1ccc2cc(Nc3cc(C(C)(C)O)ccn3)nc(N[C@H]3CC[C@@H](O)CC3)c2c1=O [compound 706]
[2] CC(C)(C)Nc1nc(Nc2cc(C(C)(C)CO)ccn2)cc2ccn(CCO)c(=O)c12 [compound 863]
[3] CC(C)(C)Nc1nc(Nc2cc(N3CCC(O)CC3)ncn2)cc2ccn(CCO)c(=O)c12 [compound 634]
-- ask Please list these molecules in decreasing order of pIC50. List the labels in the requested order.
-- reply 1, 3, 2

[I] CCn1ccc2cc(Nc3cc(C)ccn3)nc(NC3CCCC(O)C3)c2c1=O (centres unmarked) [compound 972]
[II] CCn1ccc2cc(Nc3cnccn3)nc(N[C@@H]3CCC[C@H]3O)c2c1=O [compound 940]
-- ask Quick one: lower pIC50, I or II ? Choose, then provide that item's label.
-- reply II

[a] CCn1ccc2cc(-c3cnc(N)nc3)nc(N[C@@H]3CCC(F)C3)c2c1=O (some centres unmarked) [compound 749]
[b] CC(C)(C)Nc1nc(-c2cnc(N)c(CO)c2)cc2ccn(CCO)c(=O)c12 [compound 720]
-- ask Name the one with the greater pIC50 value, either a or b as given. Returns: label corresponding to the selected item.
-- reply a
(a: 7.35, b: 7.12)
